Tested system: human glucagon receptor (human) (UniProt P47871)
Sequence (P47871 26-477): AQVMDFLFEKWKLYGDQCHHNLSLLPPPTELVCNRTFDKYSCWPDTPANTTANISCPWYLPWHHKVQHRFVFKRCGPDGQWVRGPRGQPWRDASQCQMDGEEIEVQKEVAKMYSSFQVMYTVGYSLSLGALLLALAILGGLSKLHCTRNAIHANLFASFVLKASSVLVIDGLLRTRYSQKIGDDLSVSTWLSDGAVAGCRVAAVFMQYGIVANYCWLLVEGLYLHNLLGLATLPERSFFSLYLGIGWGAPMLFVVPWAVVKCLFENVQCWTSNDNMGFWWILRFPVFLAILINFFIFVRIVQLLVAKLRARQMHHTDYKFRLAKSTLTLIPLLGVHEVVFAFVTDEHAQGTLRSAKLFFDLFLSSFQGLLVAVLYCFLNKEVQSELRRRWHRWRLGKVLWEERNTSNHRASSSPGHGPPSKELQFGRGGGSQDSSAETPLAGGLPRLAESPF
Assay explanation: cell-based or functional assay
Starred links: 1 amine or outer side, 2 acyl side, 3 side chain; linkers in the order of their positions; H or OH if unused. Non-standard residues stand in square brackets, D forms with d. Groups on a side chain read outwards from the residue. No end group written: not given here. *: point of attachment. C20 diacid = O=C(O)CCCCCCCCCCCCCCCCCCC(=O)*; Phe(4-CN) = N#Cc1ccc(C[C@H](N)C(=O)O)cc1; αMePhe(2-F) = C[C@](N)(Cc1ccccc1F)C(=O)O; γGlu = O=C(O)[C@H](CCC(=O)[*:2])N[*:1]; αMeL = CC(C)C[C@](C)(N)C(=O)O; AEEA = NCCOCCOCC(=O)O; Aib = CC(C)(N)C(=O)O
One threshold, 6 nM, splits the recorded Relative cAMP EC50 values: lower ones are rule met, equal or higher ones are rule not met.

[
  {
    "Binder": "YXQGTFTSDXSQXLDXKAQXQFIEXLIEXGPSSGEPPPSGSEE (non-natural residues, acylated Lys (AEEA-γGlu-C18 diacid), C-terminal amide; synthetic construct; SITE 2: note = 2-Aminoisobutyric Acid; SITE 10: note = 3-(4-Pyridyl)-L-alanine; SITE 13: note = alpha-methyl-leucine; SITE 16: note = L-ornithine; SITE 17: note = Lysine is chemically modified through conjugation of the epsilon-amino group of the Lysine side chain with (2-[2-(2-) [Example 1098]",
    "Assigned class": "rule not met"
  },
  {
    "Binder": "YXQGTFTSDXSXXLDKKAQXAFIEYLIAGGPSSGEPPPSGE (synthetic construct; SITE 2: note = 2-Aminoisobutyric Acid; SITE 10: note = 3-(4-Pyridyl)-L-alanine; SITE 12: note = L-ornithine; SITE 13: note = alpha-methyl-leucine; SITE 17: note = Lysine is chemically modified through conjugation of the epsilon-amino group of the Lysine side chain with (gamma-Gl)) [Example 979]",
    "Assigned class": "rule met"
  },
  {
    "Binder": "YXQGTXTSDXSILLDKKAQXAFIEYLEEGGPSSGAPPPSGTGE (synthetic construct; SITE 2: note = 2-Aminoisobutyric Acid; SITE 6: note = alpha-methyl-2-fluoro-L-phenylalanine; SITE 10: note = 3-(4-Pyridyl)-L-alanine; SITE 17: note = Lysine is chemically modified through conjugation of the epsilon-amino group of the Lysine side chain with (2-[2-(2-Amino-ethoxy))) [Example 662 (SEQ ID NO: 668)]",
    "Assigned class": "rule met"
  },
  {
    "Binder": "YXQGTXTSDYSILLDKKAQXAFIEYLEEGGPSSGAPPPSE (synthetic construct; SITE 2: note = 2-Aminoisobutyric Acid; SITE 6: note = alpha-methyl-2-fluoro-L-phenylalanine; SITE 17: note = Lysine is chemically modified through conjugation of the epsilon-amino group of the Lysine side chain with (gamma-Glu)2-CO-(CH2)16-CO2H; SITE 20: note = 2-Aminoisobutyric) [Example 433]",
    "Assigned class": "rule met"
  },
  {
    "Binder": "YXQGTFTSDFSQXLDKKAQXAFIEYLLAGGPSSGAPPPEGS (synthetic construct; SITE 2: note = 2-Aminoisobutyric Acid; SITE 13: note = alpha-methyl-leucine; SITE 17: note = Lysine is chemically modified through conjugation of the epsilon-amino group of the Lysine side chain with (2-[2-(2-Amino-ethoxy)-ethoxy]-acetyl)-(gamma-Glu)-CO-(CH2) 16-CO2H; SITE 20: n) [Example 772]",
    "Assigned class": "rule not met"
  },
  {
    "Binder": "Y[Aib]QGT[αMePhe(2-F)]TSD[Phe(4-CN)]SILLDKQAQKAFIQYLLEGGPSSGEPPPSEG-NH2 (not fully specified (residue 20)) [Example 341]",
    "Assigned class": "rule not met"
  },
  {
    "Binder": "YXQGTFTSDFSXXLDKKAQXAFIEYLLAGGPSSGAPPPSGT (synthetic construct; SITE 2: note = 2-Aminoisobutyric Acid; SITE 12: note = L-ornithine; SITE 13: note = alpha-methyl-leucine; SITE 17: note = Lysine is chemically modified through conjugation of the epsilon-amino group of the Lysine side chain with (2-[2-(2-Amino-ethoxy)-ethoxy]-acetyl)-(gamma-Glu)) [Example 87]",
    "Assigned class": "rule not met"
  },
  {
    "Binder": "YXQGTXTSDXXIXLDXKAQXEFIEXLVEGGPSSGEPPPGGE (not fully specified; Lys acylated AEEA-γGlu-C18 diacid; non-natural residues; C-amide; synthetic construct; SITE 2: note = 2-Aminoisobutyric Acid; SITE 6: note = alpha-methyl-2-fluoro-L-phenylalanine; SITE 10: note = 3-(4-Pyridyl)-L-alanine; SITE 11: note = alpha-methyl-L-serine; SITE 13: note = alpha-methyl-leucine; SITE 16: note = L-ornithine; SITE 17: note = Lysine is chemically mo) [Example 1155]",
    "Assigned class": "rule met"
  },
  {
    "Binder": "Y[Aib]QGTFTSDYSI[αMeL]LDKK([AEEA-γGlu-C20 diacid])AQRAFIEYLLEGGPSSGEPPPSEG-NH2 (not fully specified) [Example 289]",
    "Assigned class": "rule met"
  },
  {
    "Binder": "YXQGTFTSDXSXXLDKKAQXAFIEXLIEXGPSSGEPPPSGS (Lys acylated (γ-Glu)2-C18 diacid; non-natural residues; C-terminal amide; synthetic construct; SITE 2: note = 2-Aminoisobutyric Acid; SITE 10: note = 3-(4-Pyridyl)-L-alanine; SITE 12: note = L-ornithine; SITE 13: note = alpha-methyl-leucine; SITE 17: note = Lysine is chemically modified through conjugation of the epsilon-amino group of the Lysine side chain with (gamma-Gl)) [Example 989]",
    "Assigned class": "rule met"
  },
  {
    "Binder": "YXQGTFTSDFSKXLDKKAQXAFIQYLLAGGPSSGEPPPSEG (Aib, αMeL, acylated Lys, C-terminal amide; synthetic construct; SITE 2: note = 2-Aminoisobutyric Acid; SITE 13: note = alpha-methyl-leucine; SITE 17: note = Lysine is chemically modified through conjugation of the epsilon-amino group of the Lysine side chain with (2-[2-(2-Amino-ethoxy)-ethoxy]-acetyl)-(gamma-Glu)-CO-(CH2) 18-CO2H; SITE 20: n) [Example 27]",
    "Assigned class": "rule not met"
  },
  {
    "Binder": "YXQGTXTSDXSILLDKKAQXAFIEXLEEGGPSSGAPPPSGEGE (synthetic construct; SITE 2: note = 2-Aminoisobutyric Acid; SITE 6: note = alpha-methyl-2-fluoro-L-phenylalanine; SITE 10: note = 3-(4-Pyridyl)-L-alanine; SITE 17: note = Lysine is chemically modified through conjugation of the epsilon-amino group of the Lysine side chain with (gamma-Glu)2-CO-(CH2)1) [Example 667 (SEQ ID NO: 673)]",
    "Assigned class": "rule met"
  },
  {
    "Binder": "YXQGTXTSDXXIXLDXKAQXEFIEXLIEGGPPSXEPPPEGE (non-natural residues, acylated Lys, C-terminal amide; synthetic construct; SITE 2: note = 2-Aminoisobutyric Acid; SITE 6: note = alpha-methyl-2-fluoro-L-phenylalanine; SITE 10: note = 3-(4-Pyridyl)-L-alanine; SITE 11: note = alpha-methyl-L-serine; SITE 13: note = alpha-methyl-leucine; SITE 16: note = L-ornithine; SITE 17: note = Lysine is chemically mo) [Example 1190]",
    "Assigned class": "rule met"
  },
  {
    "Binder": "YXQGTXTSDXXIXLDXKAQXXFIEXLIEGGPSSGEPPPS (synthetic construct; SITE 2: note = 2-Aminoisobutyric Acid; SITE 6: note = alpha-methyl-2-fluoro-L-phenylalanine; SITE 10: note = 3-(4-Pyridyl)-L-alanine; SITE 11: note = alpha-methyl-L-serine; SITE 13: note = alpha-methyl-leucine; SITE 16: note = L-ornithine; SITE 17: note = Lysine is chemically mo) [Example 375]",
    "Assigned class": "rule met"
  },
  {
    "Binder": "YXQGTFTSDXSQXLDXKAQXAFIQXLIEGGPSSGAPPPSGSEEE (Glu-γGlu-C18 diacid on Lys; non-natural residues; amide; synthetic construct; SITE 2: note = 2-Aminoisobutyric Acid; SITE 10: note = 3-(4-Pyridyl)-L-alanine; SITE 13: note = alpha-methyl-leucine; SITE 16: note = L-ornithine; SITE 17: note = Lysine is chemically modified through conjugation of the epsilon-amino group of the Lysine side chain with (Glu)-(ga)) [Example 1077]",
    "Assigned class": "rule not met"
  },
  {
    "Binder": "YXQGTFTSDXSQXLDXKAQXAFIEYLIAGGPSSGEPPPSGSE (synthetic construct; SITE 2: note = 2-Aminoisobutyric Acid; SITE 10: note = 3-(4-Pyridyl)-L-alanine; SITE 13: note = alpha-methyl-leucine; SITE 16: note = L-ornithine; SITE 17: note = Lysine is chemically modified through conjugation of the epsilon-amino group of the Lysine side chain with (gamma-Gl)) [Example 977]",
    "Assigned class": "rule not met"
  },
  {
    "Binder": "YXQGTFTSDFSKXLDKKAQXAFIEYLLAGGPSSGEPPPSSE (acylated Lys, C-terminal amide, non-natural residues; synthetic construct; SITE 2: note = 2-Aminoisobutyric Acid; SITE 13: note = alpha-methyl-leucine; SITE 17: note = Lysine is chemically modified through conjugation of the epsilon-amino group of the Lysine side chain with (2-[2-(2-Amino-ethoxy)-ethoxy]-acetyl)2-(gamma-Glu)-CO-(CH2 )18-CO2H; SITE 20:) [Example 5]",
    "Assigned class": "rule not met"
  },
  {
    "Binder": "YXQGTFTSDXSKXLDKKAQXAFIEYLIEXGPSSGAPPPSGS (synthetic construct; SITE 2: note = 2-Aminoisobutyric Acid; SITE 10: note = 3-(4-Pyridyl)-L-alanine; SITE 13: note = alpha-methyl-leucine; SITE 17: note = Lysine is chemically modified through conjugation of the epsilon-amino group of the Lysine side chain with (2-[2-(2-Amino-ethoxy)-ethoxy]-acetyl)) [Example 801]",
    "Assigned class": "rule met"
  },
  {
    "Binder": "YXQGTXTSDXXILLDXKAQXXFIEYLIEGGPSSGEPPPEGAEE (non-natural residues; Lys acylated C18 diacid; C-terminal amide; synthetic construct; SITE 2: note = 2-Aminoisobutyric Acid; SITE 6: note = alpha-methyl-2-fluoro-L-phenylalanine; SITE 10: note = 3-(4-Pyridyl)-L-alanine; SITE 11: note = alpha-methyl-L-serine; SITE 16: note = L-ornithine; SITE 17: note = Lysine is chemically modified through conjugation of the epsi) [Example 604]",
    "Assigned class": "rule met"
  },
  {
    "Binder": "YXQGTXTSDXXIXLEXKAQXEFIEXLVEGGPSSGAPPPSGS (synthetic construct; SITE 2: note = 2-Aminoisobutyric Acid; SITE 6: note = alpha-methyl-2-fluoro-L-phenylalanine; SITE 10: note = 3-(4-Pyridyl)-L-alanine; SITE 11: note = alpha-methyl-L-serine; SITE 13: note = alpha-methyl-leucine; SITE 16: note = L-ornithine; SITE 17: note = Lysine is chemically mo) [Example 768]",
    "Assigned class": "rule not met"
  },
  {
    "Binder": "Y[Aib]QGT[αMePhe(2-F)]TSDYSKLLDKQAQK([AEEA-γGlu-C20 diacid])QFIEYLIEGGPSSGEPPPSEG-NH2 [Example 309]",
    "Assigned class": "rule not met"
  },
  {
    "Binder": "YXQGTFTSDFSXXLDKKAQXAFIEYLLEXGPSSGEPPPGEG (synthetic construct; SITE 2: note = 2-Aminoisobutyric Acid; SITE 12: note = L-ornithine; SITE 13: note = alpha-methyl-leucine; SITE 17: note = Lysine is chemically modified through conjugation of the epsilon-amino group of the Lysine side chain with (2-[2-(2-Amino-ethoxy)-ethoxy]-acetyl)2-(gamma-Glu)) [Example 69]",
    "Assigned class": "rule met"
  },
  {
    "Binder": "YXQGTFTSDXSQXLDXKAQXAFIEYLIEXGPSSGAPPPSGSEE (synthetic construct; SITE 2: note = 2-Aminoisobutyric Acid; SITE 10: note = 3-(4-Pyridyl)-L-alanine; SITE 13: note = alpha-methyl-leucine; SITE 16: note = L-ornithine; SITE 17: note = Lysine is chemically modified through conjugation of the epsilon-amino group of the Lysine side chain with (gamma-Gl)) [Example 937]",
    "Assigned class": "rule met"
  }
]
